src = paper PMC6232370

# ASSAY_METHOD_TEXT: Tissue distribution of CRL in mice
# Type: in vivo
# EXPERIMENTAL_CONDITIONS: male, BALB/c, mouse, tissues (heart, liver, spleen, lung, kidney, brain), po, 250 mg/kg intragastric, tissues, post dosing, read-out: Time to reach the maximum concentration
PROPERTY: Tmax (h)
Your answer is read as h, so omit the unit and give the number.

Query: Looking for the measured Tmax of CN1Cc2c(ccc3c2OCO3)[C@@]2(C)[C@@H](O)Cc3cc4c(cc3[C@@H]12)OCO4 [CRL, Corynoline] , can you help?
Reply: 2
